Data origin, for the record: PubChem BioAssay (NCI)

# key: entry, value: growth inhibition
experiment: NCI Yeast Anticancer Drug Screen. Data for the rad50 strain (AID 155);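 further: 0% = growth of vehicle-only cultures of the same strain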; conditions: S. cerevisiae rad50 strain growth inhibition; at 50.0 µM; hits give high values
About 79,000 compounds went through this panel and 15% of them were active in at least one assay; those are over-represented in the sample as a whole.
The response must be a number in % with no trailing unit.

Look over these answered cases.
molecule	unit label	growth inhibition
C/C(=N/NC(N)=S)c1ccc(C)cc1	%	69
O=C(O)c1cc2c(s1)C(=O)c1sccc1C2=O	%	71.5
Nc1ccc(C(=O)/C=C/c2ccccc2)cc1	%	67.8
Oc1ccc(Br)cc1Sc1cc(Br)ccc1O	%	87.9
Nc1c(N)c(Cl)c(Cl)c(Cl)c1Cl	%	87
CCN(CC)CCNC(Cc1ccccc1)c1ccc(OCc2ccccc2)cc1 (configuration not stated)	%	86.7
COc1cc(OC)c(/C=C/c2c3ccccc3cc[n+]2C)c(OC)c1	%	61.6
C=C(C)C1CC2(C)C(C)CC(O)CC2C(OC(=O)C=C(C)C)C1O (configuration not stated)	%	78.3

# input Quick check: growth inhibition of CCCCCCCCCCCC[n+]1ccccc1 (tested in a mixture with another compound) ?
# output 99.1

---

test: NCI Yeast Anticancer Drug Screen. Data for the mec2-1 strain (AID 157); details: S. cerevisiae mec2-1 strain, at 5.0 µM (retest, dose inferred, filed as 0.5)
About 79,000 compounds went through this panel and 15% of them were active in at least one assay; those are over-represented in the sample as a whole. Calls of active or inactive are those of the source. No stated cut-off is given here; in the data, active means growth inhibition above about 70%; inactive means the rest.
Give one outcome, nothing more. List: active, inactive

molecule	class name
Cc1cc(C(=C2C=CC(=Nc3ccccc3)C=C2)c2ccc(Nc3ccccc3)cc2)ccc1N	inactive

# input Called result for COc1ccc2c(c1)c(CC(=O)O)c(C)n2C(=O)c1ccc(Cl)cc1
# output inactive

# input Further, for COc1ccc2nc3cc(Cl)ccc3c(NCCCCCN3CCCCC3)c2c1 ?
# output inactive

---

assay: NCI Yeast Anticancer Drug Screen. Data for the mlh1 rad18 strain (AID 175); details: S. cerevisiae mlh1 rad18 strain growth inhibition; at 5.0 µM (retest, dose inferred, filed as 0.5)
About 79,000 compounds went through this panel and 15% of them were active in at least one assay; those are over-represented in the sample as a whole. Calls of active or inactive are those of the source. No stated cut-off is given here; in the data, active means growth inhibition above about 70%; inactive means the rest.
Give one outcome, nothing more. List: yes (1) = active, no (0) = inactive

Solved entries:
compound	class name
COc1cc(/C=C2\SC(=S)N(/C=C/c3nc4ccccc4[nH]c3=O)C2=O)cc(OC)c1OC	no (0)
CCCCCC/C=C1\CCC(CN2CCCC2)C1=O (stereo unspecified)	yes (1)
O=C(O)c1ccc(-c2ccccc2)cc1	no (0)
O=[N+]([O-])c1ccc([I+]c2ccccc2)cc1	yes (1)
C=CCCCCCCCCC(=O)NN	no (0)

# input Called result for COc1cc(/C=C/c2ccnc3ccccc23)cc(OC)c1OC
# output no (0)

# input Further, for Cc1nn(CCO)c(C)c1N=[N+]([O-])c1c(C)nn(CCO)c1C ?
# output no (0)

# input Further, for O=[N+]([O-])c1ccc(N2CCN(Cc3ccccc3)CC2)c2c1no[n+]2[O-] ?
# output no (0)

---

test: NCI Yeast Anticancer Drug Screen. Data for the rad50 strain (AID 155);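 further: 0% = growth of vehicle-only cultures of the same strain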; details: S. cerevisiae rad50 strain growth inhibition; at 5.0 µM (retest, dose inferred, filed as 0.5)
Compounds without any hit were thinned out: in the full panel of roughly 79,000, 15% have a hit. Activity calls are given as the source filed them. Cut-off read from the data, not from the text of the source: active = growth inhibition above about 70%; inactive = the rest. *1 amine or outer side, *2 acyl side, *3 side chain or, on linkers, in order; H or OH if unused. Where a SMILES comes first, the peptide text is derived from it. Bridges are numbered along the chain shown (N, C = ends). Roman numbers before positions name the chains, in order. [ ]: non-standard residue; d: D form. Actinocin(1to9) = Cc1c2oc3c(C)ccc(C(=O)[*:2])c3nc-2c(C(=O)[*:1])c(N)c1=O; NMeV = CN[CH](C(=O)O)C(C)C; Sar = CNCC(=O)O
Give one outcome, nothing more. List: t = active, f = inactive

Solved entries:
compound	class name
CCC(C)C1NC(=O)C(NC(=O)c2c3nc4c(C(=O)NC5C(=O)NC(C(C)CC)C(=O)N6CCCC6C(=O)N(C)CC(=O)N(C)C(C(C)C)C(=O)OC5C)ccc(C)c4oc-3c(C)c(=O)c2N)C(C)OC(=O)C(C(C)C)N(C)C(=O)CN(C)C(=O)C2CCCN2C1=O (centres undefined) (I: TIP[Sar][NMeV] / II: TIP[Sar][NMeV]; ester I:1-I:C, II:1-II:C; linker I:N-II:N via Actinocin(1to9); configuration not given here)	f
Cc1cc(=O)oc2cc(O)cc(O)c12	f

# input Called result for OC(c1cc(C23CC4CC(CC(C4)C2)C3)nc2c(Cl)cc(Cl)cc12)C1CCCCN1 (centres undefined)
# output t

# input Further, for CC1(C)CCC2(C(=O)O)C(O)CC3(C)C(=CCC4C5(C)CCC(OC6OCC(O)C(O)C6OC6OCC(O)C(O)C6OC6OCC(O)C(OC7OC(CO)C(O)C(O)C7O)C6O)C(C)(C)C5CCC43C)C2C1 (centres undefined) ?
# output f

# input Further, for CCCC(=O)c1ccc([N+](=O)[O-])o1 ?
# output f

# input Further, for O=C(CO)NCCO ?
# output f

# input Further, for CC(=O)Oc1ccc(OC(C)=O)c2c1CC=CC2 ?
# output f

# input Further, for O=C(Cc1nc2cc(Cl)c(Cl)cc2nc1CC(=O)c1cccnc1)c1cccnc1 ?
# output f

# input Further, for N=C1C=C(N)C(=O)c2ccccc21 ?
# output f
